- assayInfo: Toxicity in mouse
- Type: organism-based
- experimentalConditions: in vivo
Attribute: MTD

CCCC(=O)NC1=CC(=O)c2ccc(C=O)nc2C1=O	< 10 mg/kg
CC(=O)NC1=CC(=O)c2ccc(C)nc2C1=O	< 10 mg/kg
CCCC(=O)NC1=CC(=O)c2ccc(C)nc2C1=O	< 10 mg/kg
CC(=O)NC1=CC(=O)c2ccc(-c3[nH]c(C(N)=O)cc4c5ccccc5nc3-4)nc2C1=O	400 mg/kg

// below: MTD requested for another compound
Exercise: Recorded MTD of NC1=CC(=O)c2ccc(-c3[nH]ccc4c5ccccc5nc3-4)nc2C1=O [DECARBOXYDEMETHYLLAVENDAMYCIN] , please.
Solution: 400 mg/kg

# credit: ChEMBL document CHEMBL1144487
